System: MV4; 11
Assay: Cell viability, ATPlite 48 hours, MV4-11
Assay type: cell-based
Conditions: Homo sapiens, 11 cells
I'd be grateful if you could share measured IC50 for these entries.
One number for each entry, in nM.

[
  {
    "MOLECULE": "CC[C@@H]1C(=O)N(C)c2cnc(Nc3ccc(C(=O)NCCCCNC(=O)COc4cccc5c4C(=O)N(C4CCC(=O)NC4=O)C5=O)cc3OC)nc2N1C1CCCC1 (stereo partly drawn) [dBET2]",
    "IC50 [nM]": 6.3
  }
]

[ask] Which IC50 reading was recorded for the molecule Cc1sc2c(c1C)C(c1ccc(Cl)cc1)=N[C@@H](CC(=O)NCCCCCCNC(=O)c1ccc3c(c1)C(=O)N(C1CCC(=O)NC1=O)C3=O)c1nnc(C)n1-2 (stereo partly drawn) [dBET15] ?
[reply] 312

* * *

Target: BRD4 adjoined to nanoluciferase (Nluc) (Homo sapiens, UniProt O60885+Q96SW2)
Construct: expressed in transfected cells
Assay: BRD4 Dual Luciferase Assay
Assay type: cell-based
I'd be grateful if you could share measured Conc@Emax for these entries.
Write your answer as a measured quantity: the number, then the unit.

[
  {
    "MOLECULE": "Cc1sc2c(c1C)C(c1ccc(Cl)cc1)=N[C@@H](CC(=O)NCCCCCCOc1cccc3c1C(=O)N(C1CCC(=O)NC1=O)C3=O)c1nnc(C)n1-2 (stereo partly shown)",
    "ASSAY_RESULT": "0.05 µM"
  },
  {
    "MOLECULE": "CC[C@@H]1C(=O)N(C)c2cnc(Nc3ccc(C(=O)NCCCCCCNC(=O)COc4cccc5c4C(=O)N(C4CCC(=O)NC4=O)C5=O)cc3OC)nc2N1C1CCCC1 (stereo partly shown)",
    "ASSAY_RESULT": "0.5 µM"
  },
  {
    "MOLECULE": "Cc1sc2c(c1C)C(c1ccc(Cl)cc1)=N[C@@H](CC(=O)NCCNC(=O)COc1cccc3c1C(=O)N(C1CCC(=O)NC1=O)C3=O)c1nnc(C)n1-2 (stereo partly shown)",
    "ASSAY_RESULT": "0.5 µM"
  },
  {
    "MOLECULE": "Cc1c(C(=O)NCCCCNC(=O)COc2cccc3c2C(=O)N(C2CCC(=O)NC2=O)C3=O)sc2c1C(c1ccc(Cl)cc1)=N[C@@H](CC(=O)NCCCN1CCN(C)CC1)c1nnc(C)n1-2 (stereo partly shown)",
    "ASSAY_RESULT": "50 µM"
  },
  {
    "MOLECULE": "Cc1sc2c(c1C)C(c1ccc(Cl)cc1)=N[C@@H](CC(=O)NCCOCCOc1cccc3c1C(=O)N(C1CCC(=O)NC1=O)C3=O)c1nnc(C)n1-2 (stereo partly shown)",
    "ASSAY_RESULT": "0.5 µM"
  }
]

Batch of 2 molecules: report Conc@Emax for each.
1. Cc1sc2c(c1C)C(c1ccc(Cl)cc1)=N[C@@H](CC(=O)NCCOCCOCCNC(=O)COc1cccc3c1C(=O)N(C1CCC(=O)NC1=O)C3=O)c1nnc(C)n1-2 (stereo partly shown)
2. CC[C@@H]1C(=O)N(C)c2cnc(Nc3ccc(C(=O)NCCCOCCOCCOCCCNC(=O)COc4cccc5c4C(=O)N(C4CCC(=O)NC4=O)C5=O)cc3OC)nc2N1C1CCCC1 (stereo partly shown)

[reply]
1: 5 µM; 2: 50 µM

* * *

Molecular target: BRDT (Homo sapiens)
Assay: BRDT IC50 (Table 4)
Assay type: binding
Conditions: read-out: IC50 (nM) BRDT
Please assign f whenever IC50 is at or above 1000 nM, and t whenever it is below.

Below are worked cases with known answers.
[
  {
    "COMPOUND": "Cc1sc2c(c1C)C(c1ccc(Cl)cc1)=N[C@@H](CC(=O)NCCCCCCCCNC(=O)COc1cccc3c1C(=O)N(C1CCC(=O)NC1=O)C3=O)c1nnc(C)n1-2 (stereo partly shown)",
    "DISCRETE_LABEL": "t"
  },
  {
    "COMPOUND": "COc1cc(C(=O)NCCCCNC(=O)COc2cccc3c2C(=O)N(C2CCC(=O)NC2=O)C3=O)ccc1Nc1ncc2c(n1)N(C)c1ccccc1C(=O)N2C (stereo not shown)",
    "DISCRETE_LABEL": "f"
  }
]

[ask] # check: IC50 < 1000 nM for Cc1sc2c(c1C)C(c1ccc(Cl)cc1)=N[C@@H](CC(=O)NCCCN1CCN(C(=O)CCCCCNC(=O)COc3cccc4c3C(=O)N(C3CCC(=O)NC3=O)C4=O)CC1)c1nnc(C)n1-2 (stereo partly shown)
[reply] t

[ask] # check: IC50 < 1000 nM for Cc1sc2c(c1C)C(c1ccc(Cl)cc1)=N[C@@H](CC(=O)NCCCCCCNC(=O)COc1cccc3c1C(=O)N(C1CCC(=O)NC1=O)C3=O)c1nnc(C)n1-2 (stereo partly shown)
[reply] t

[ask] # check: IC50 < 1000 nM for Cc1c(CC#N)sc2c1C(c1ccc(Cl)cc1)=N[C@@H](CC(=O)NCCCCNC(=O)COc1cccc3c1C(=O)N(C1CCC(=O)NC1=O)C3=O)c1nnc(C)n1-2 (stereo partly shown)
[reply] f

[ask] # check: IC50 < 1000 nM for CC[C@@H]1C(=O)N(C)c2cnc(Nc3ccc(C(=O)NCCCCCCCCNC(=O)COc4cccc5c4C(=O)N(C4CCC(=O)NC4=O)C5=O)cc3OC)nc2N1C1CCCC1 (stereo partly shown)
[reply] t

[ask] # check: IC50 < 1000 nM for COc1cc(C(=O)NCCCOCCOCCOCCCNC(=O)COc2cccc3c2C(=O)N(C2CCC(=O)NC2=O)C3=O)ccc1Nc1ncc2c(n1)N(C)c1ccccc1C(=O)N2C (stereo not shown)
[reply] f

* * *

Biological target: FKBP12 (WT) (Homo sapiens)
Sequence (P62942 whole entry): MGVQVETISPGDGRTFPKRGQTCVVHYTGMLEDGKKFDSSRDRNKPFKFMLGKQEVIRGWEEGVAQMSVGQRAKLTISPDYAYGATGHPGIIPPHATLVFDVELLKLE
Assay: FKBP12 (WT) Ligand-Displacement AlphaScreen Assay
Assay type: binding
Details: biotin-SLF displacement, read-out: IC50 (nM) FKBP
REPORTED_PROPERTY: IC50 (nM)
Numbers only, in nM.

[ask] Which IC50 reading was recorded for the compound CCC(C)(C)C(=O)C(=O)N1CCCC[C@H]1C(=O)O[C@H](CCc1ccc(OC)c(OC)c1)c1cccc(NC(=O)CCC(=O)NCCCCNC(=O)COc2cccc3c2C(=O)N(C2CCC(=O)NC2=O)C3=O)c1 (stereo partly shown) [dFKBP-1] ?
[reply] 274

* * *

Molecular target: BRD4 adjoined to nanoluciferase (Nluc) (Homo sapiens, UniProt O60885+Q96SW2)
Construct: expressed in transfected cells
Experiment: BRD4 Dual Luciferase Assay;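 note: transduced reporter cells exposed to compound for 4 h, then Nluc and Fluc luminescence read, each normalized to DMSO controls and expressed as Nluc/Fluc ratio per well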
Assay type: cell-based
Settings: BRD4 remaining at Emax; read-out: BRD4− Emax (percent remaining)
I'd be grateful if you could share measured Emax for these entries.
One number for each entry, in %.

Observe how each entry below is paired with its result.
[
  {
    "MOLECULE": "Cc1sc2c(c1C)C(c1ccc(Cl)cc1)=N[C@@H](CC(=O)NCCOCCOc1cccc3c1C(=O)N(C1CCC(=O)NC1=O)C3=O)c1nnc(C)n1-2 (some centres unmarked) [dBET27]",
    "EXPERIMENTAL_SYSTEM": "BRD4 adjoined to nanoluciferase (Nluc) (Homo sapiens, UniProt O60885+Q96SW2)",
    "DISPLAY_UNIT": "%",
    "Emax": 67.3
  },
  {
    "MOLECULE": "Cc1c(CC#N)sc2c1C(c1ccc(Cl)cc1)=N[C@@H](CC(=O)NCCCCNC(=O)COc1cccc3c1C(=O)N(C1CCC(=O)NC1=O)C3=O)c1nnc(C)n1-2 (some centres unmarked) [dBET19]",
    "EXPERIMENTAL_SYSTEM": "BRD4 adjoined to nanoluciferase (Nluc) (Homo sapiens, UniProt O60885+Q96SW2)",
    "DISPLAY_UNIT": "%",
    "Emax": 93.3
  },
  {
    "MOLECULE": "CC[C@@H]1C(=O)N(C)c2cnc(Nc3ccc(C(=O)NCCCOCCOCCOCCCNC(=O)COc4cccc5c4C(=O)N(C4CCC(=O)NC4=O)C5=O)cc3OC)nc2N1C1CCCC1 (some centres unmarked) [dBET10]",
    "EXPERIMENTAL_SYSTEM": "BRD4 adjoined to nanoluciferase (Nluc) (Homo sapiens, UniProt O60885+Q96SW2)",
    "DISPLAY_UNIT": "%",
    "Emax": 73.1
  }
]

Batch of 2 molecules: report Emax for each.
1. Cc1sc2c(c1C)C(c1ccc(Cl)cc1)=N[C@@H](CC(=O)NCCCOCCOCCOCCCNC(=O)COc1cccc3c1C(=O)N(C1CCC(=O)NC1=O)C3=O)c1nnc(C)n1-2 (some centres unmarked) [dBET9]
2. Cc1sc2c(c1C)C(c1ccc(Cl)cc1)=N[C@@H](CC(=O)NCCCN1CCN(C(=O)CCCCCNC(=O)COc3cccc4c3C(=O)N(C3CCC(=O)NC3=O)C4=O)CC1)c1nnc(C)n1-2 (some centres unmarked) [dBET18]

[reply]
71
65.4
